Please respond with reported apparent KD of MS2 coat protein for every item in the list.
Tested on: MS2 coat protein
Assay: apparent KD of MS2 coat protein; designed switch direction (-1 OFF switch, 1 ON switch): -1; higher = weaker reporter binding
Settings: input ligand: none
API: value field is a number in nM; no unit string.

QUERY: Name the recorded apparent KD of MS2 coat protein of the item CUUUUUGUUGAGGAUAUGCACCAGCUCACUGACGCAGAAGGCGACACAUGAGGAUCACCCAUGUCAGUUCGCGU [salish99_ex6_r004_431] (Eterna round: R97, puzzle: Exclusion 6) in your answer.
RESULT: 16.8

QUERY: Consider the sequence ACAUGAGGAUCACCCAUGUCCGGCUGGUCCGUCUCGGCUGUCGAGGAUAUAGCACGGUAUCCGCGCUAGAAGGCGGGAGCCGGA [Aenatbe mod 85] (Eterna round: R96, puzzle: Exclusion NG 3) and give its recorded apparent KD of MS2 coat protein.
RESULT: 39.6

QUERY: Supply apparent KD of MS2 coat protein value. Item: AAACAGCAAGGAUAUACGGGCUGUGCUUUUCAUUUCUUACAACAUGAGGAUCACCCAUGUAGAAGGUGCAACAA [Ex2 #5] (Eterna round: R97, puzzle: Exclusion 2)
RESULT: 24.5

QUERY: Give the reported value of apparent KD of MS2 coat protein for this record: ACAUGUCAUCGAGGAUAUUGCACACAUGAGGAUCACCCAUGUAUUCGGUUGCUCUCGCGUGAGUUCGAGAAGGCGAUGUACAUU [Ex NG2 #84] (Eterna round: R96, puzzle: Exclusion NG 2)
RESULT: 48.9

QUERY: Write down apparent KD of MS2 coat protein measured for item AAGUGCGAAGGAUAUACAUGAGGAUCACCCAUGUUCACCAAAACACAGGUCUCAGACUGUAGAAGGUCGCACAG [Eternabot (Original) Solution 45] (Eterna round: R97, puzzle: Exclusion 3)
RESULT: 59.8
